Label True when melting point is at or above 200 °C; otherwise label False.

O=C(N[C@H]1CC[C@H](CCN2CCC(c3coc4ccccc34)CC2)CC1)C(F)(F)F: False
O=C(N[C@H]1CC[C@H](CCN2CCC(c3coc4ccccc34)CC2)CC1)c1ccc(C(F)(F)F)cc1: True
COCCC(=O)N[C@H]1CC[C@H](CCN2CCC(c3coc4ccccc34)CC2)CC1: False

Does melting point meet or surpass 200 °C for O=C(CC1COCCO1)N[C@H]1CC[C@H](CCN2CCC(c3coc4ccccc34)CC2)CC1 (mixture of isomers) ? False

Does melting point meet or surpass 200 °C for `CS(=O)(=O)c1ccc(C(=O)N[C@H]2CC[C@H](CCN3CCC(c4coc5ccccc45)CC3)CC2)s1` ? True

Does melting point meet or surpass 200 °C for `CCC(=O)N[C@H]1CC[C@H](CCN2CCC(c3coc4ccccc34)CC2)CC1` ? False

Does melting point meet or surpass 200 °C for O=C(N[C@H]1CC[C@H](CCN2CCC(c3coc4ccccc34)CC2)CC1)C1CC1(F)F (stereo partly shown) ? False

Does melting point meet or surpass 200 °C for `O=C(N[C@H]1CC[C@H](CCN2CCC(c3coc4ccccc34)CC2)CC1)c1ccc(N2CCS(=O)(=O)CC2)cc1` ? True

---

Exercise: for every item that follows, state its recorded melting point.
One number for each entry, in °C.

CC(C)(C)C(=O)N[C@H]1CC[C@H](CCN2CCC(c3coc4ccccc34)CC2)CC1: 157
O=C(CC1COC1)N[C@H]1CC[C@H](CCN2CCC(c3coc4ccccc34)CC2)CC1: 197
O=C(Cc1noc2ccccc12)N[C@H]1CC[C@H](CCN2CCC(c3coc4ccccc34)CC2)CC1: 175

I have 5 molecules here; please give me melting point for each one.
1. N#Cc1ccc(C(=O)N[C@H]2CC[C@H](CCN3CCC(c4coc5ccccc45)CC3)CC2)cc1
2. CC(C)(O)C(=O)N[C@H]1CC[C@H](CCN2CCC(c3coc4ccccc34)CC2)CC1
3. Cc1ccc(C(=O)N[C@H]2CC[C@H](CCN3CCC(c4coc5ccccc45)CC3)CC2)cn1
4. Cc1cc(CC(=O)N[C@H]2CC[C@H](CCN3CCC(c4coc5ccccc45)CC3)CC2)on1
5. O=C(N[C@H]1CC[C@H](CCN2CCC(c3coc4ccccc34)CC2)CC1)c1ccccc1

1. 195
2. 169
3. 203
4. 165
5. 189

Query (molecule): `N#CCC(=O)N[C@H]1CC[C@H](CCN2CCC(c3coc4ccccc34)CC2)CC1` ; field requested: melting point 186

---

Exercise: for every item that follows, state its recorded pKi.
# System tested: human D3 receptor (Homo sapiens (Human))
# Sequence (P35462 whole entry): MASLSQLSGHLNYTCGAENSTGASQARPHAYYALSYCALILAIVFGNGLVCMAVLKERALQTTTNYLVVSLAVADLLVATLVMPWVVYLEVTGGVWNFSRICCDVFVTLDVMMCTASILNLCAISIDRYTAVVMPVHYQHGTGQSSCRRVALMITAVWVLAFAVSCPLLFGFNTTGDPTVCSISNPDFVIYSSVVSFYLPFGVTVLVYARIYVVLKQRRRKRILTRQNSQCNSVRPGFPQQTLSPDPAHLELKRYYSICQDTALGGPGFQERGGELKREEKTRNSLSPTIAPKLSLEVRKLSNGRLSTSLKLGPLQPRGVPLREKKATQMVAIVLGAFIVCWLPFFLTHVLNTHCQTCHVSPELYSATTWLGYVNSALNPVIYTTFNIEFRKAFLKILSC
Answers are plain numbers, as −log10 of the molar value.

O=C(N[C@H]1CC[C@H](CCN2CCC(c3coc4ccccc34)CC2)CC1)C1CCOCC1: 8.34
O=C(N[C@H]1CC[C@H](CCN2CCC(c3coc4ccccc34)CC2)CC1)c1ccc2c(c1)OCO2: 8.55
O=C(N[C@H]1CC[C@H](CCN2CCC(c3coc4ccccc34)CC2)CC1)c1ccc(-c2cccnc2)cc1: 8.34

I have 5 compounds here; please give me pKi for each one.
1. C/C=C/CC(=O)N[C@H]1CC[C@H](CCN2CCC(c3coc4ccccc34)CC2)CC1
2. CC(C)CC(=O)N[C@H]1CC[C@H](CCN2CCC(c3coc4ccccc34)CC2)CC1
3. COC(CC(=O)N[C@H]1CC[C@H](CCN2CCC(c3coc4ccccc34)CC2)CC1)OC
4. CC(C)(C)Oc1ccc(C(=O)N[C@H]2CC[C@H](CCN3CCC(c4coc5ccccc45)CC3)CC2)cc1
5. CC(C)CCC(=O)N[C@H]1CC[C@H](CCN2CCC(c3coc4ccccc34)CC2)CC1

1. 8.74
2. 8.71
3. 8.84
4. 8.67
5. 8.54

I have 8 compounds here; please give me pKi for each one.
1. CC(C)(O)C(=O)N[C@H]1CC[C@H](CCN2CCC(c3coc4ccccc34)CC2)CC1
2. O=C(CC1CCCO1)N[C@H]1CC[C@H](CCN2CCC(c3coc4ccccc34)CC2)CC1 (stereo partly shown)
3. O=C(N[C@H]1CC[C@H](CCN2CCC(c3coc4ccccc34)CC2)CC1)C1CC1
4. O=C(CC1CC1)N[C@H]1CC[C@H](CCN2CCC(c3coc4ccccc34)CC2)CC1
5. CC(C)Cc1ccc(C(=O)N[C@H]2CC[C@H](CCN3CCC(c4coc5ccccc45)CC3)CC2)cc1
6. Cc1nc(-c2ccc(C(=O)N[C@H]3CC[C@H](CCN4CCC(c5coc6ccccc56)CC4)CC3)cc2)no1
7. CC(C)=CC(=O)N[C@H]1CC[C@H](CCN2CCC(c3coc4ccccc34)CC2)CC1
8. O=C(N[C@H]1CC[C@H](CCN2CCC(c3coc4ccccc34)CC2)CC1)c1ccc(F)cc1

[8.26, 8.56, 8.57, 8.65, 8.38, 8.54, 8.55, 8.52]

---

# System tested: human 5-HT2A receptor (Homo sapiens (Human), UniProt P28223)
# Sequence (P28223 whole entry): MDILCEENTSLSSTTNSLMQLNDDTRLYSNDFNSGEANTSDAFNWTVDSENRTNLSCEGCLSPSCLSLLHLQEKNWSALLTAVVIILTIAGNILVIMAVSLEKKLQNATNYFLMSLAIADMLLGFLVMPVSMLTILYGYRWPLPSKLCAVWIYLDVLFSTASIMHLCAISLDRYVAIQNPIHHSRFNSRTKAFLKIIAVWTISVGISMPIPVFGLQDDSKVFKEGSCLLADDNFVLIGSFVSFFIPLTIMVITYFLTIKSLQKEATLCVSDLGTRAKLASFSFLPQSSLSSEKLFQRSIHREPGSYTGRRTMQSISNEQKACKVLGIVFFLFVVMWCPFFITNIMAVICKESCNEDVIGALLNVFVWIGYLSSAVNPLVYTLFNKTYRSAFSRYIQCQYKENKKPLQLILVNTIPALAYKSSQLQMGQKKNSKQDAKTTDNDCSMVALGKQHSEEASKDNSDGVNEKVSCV
Value kind: pKi
Numbers only, as −log10 of the molar value.

Solved cases below.
O=C(N[C@H]1CC[C@H](CCN2CCC(c3coc4ccccc34)CC2)CC1)c1ccc(Cl)cc1: 8.05
O=C(N[C@H]1CC[C@H](CCN2CCC(c3coc4ccccc34)CC2)CC1)c1ccc(C(F)(F)F)cc1: 8.32
O=C(C[C@@H](O)C(F)(F)F)N[C@H]1CC[C@H](CCN2CCC(c3coc4ccccc34)CC2)CC1: 8.01
CCS(=O)(=O)N[C@H]1CC[C@H](CCN2CCC(c3coc4ccccc34)CC2)CC1: 8.29
O=C(N[C@H]1CC[C@H](CCN2CCC(c3coc4ccccc34)CC2)CC1)c1ccc(-c2cccnc2)cc1: 7.89

I have 2 molecules here; please give me pKi for each one.
1. O=C(N[C@H]1CC[C@H](CCN2CCC(c3coc4ccccc34)CC2)CC1)C1CCOC1 (mixture of isomers)
2. O=C(N[C@H]1CC[C@H](CCN2CCC(c3coc4ccccc34)CC2)CC1)c1ccnc2ccccc12

[8.23, 8.06]

---

Exercise: for every item that follows, state its recorded pKi.
# System tested: human D2 receptor (Homo sapiens (Human), UniProt P14416)
# Sequence (P14416 whole entry): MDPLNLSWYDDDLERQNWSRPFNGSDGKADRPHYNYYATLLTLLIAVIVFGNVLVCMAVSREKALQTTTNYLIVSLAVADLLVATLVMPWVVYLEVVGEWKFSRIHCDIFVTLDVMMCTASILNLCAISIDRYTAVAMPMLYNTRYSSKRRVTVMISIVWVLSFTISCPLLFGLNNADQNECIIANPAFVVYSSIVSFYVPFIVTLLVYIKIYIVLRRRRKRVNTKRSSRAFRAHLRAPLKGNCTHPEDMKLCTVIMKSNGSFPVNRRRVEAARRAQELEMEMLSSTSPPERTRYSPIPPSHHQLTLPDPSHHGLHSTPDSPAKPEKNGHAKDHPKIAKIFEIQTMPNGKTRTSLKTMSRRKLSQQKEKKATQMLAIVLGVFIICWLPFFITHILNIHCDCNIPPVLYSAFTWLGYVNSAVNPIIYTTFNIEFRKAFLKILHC
# Assay details: Radioligand binding ([3H]-spiperone) to human D2 receptor, HEK293 EBNA membranes
# Measurement conditions: HEK293 EBNA cells expressing human D2 receptor
One number for each entry, as −log10 of the molar value.

O=C(CC1CCC1)N[C@H]1CC[C@H](CCN2CCC(c3coc4ccccc34)CC2)CC1 [Example 48]: 7.23

I have 7 molecules here; please give me pKi for each one.
1. CS(=O)(=O)c1ccc(C(=O)N[C@H]2CC[C@H](CCN3CCC(c4coc5ccccc45)CC3)CC2)s1 [Example 75]
2. CN1CCN(c2ccc(C(=O)N[C@H]3CC[C@H](CCN4CCC(c5coc6ccccc56)CC4)CC3)cc2)CC1 [Example 62]
3. CC(C)c1ccc(C(=O)N[C@H]2CC[C@H](CCN3CCC(c4coc5ccccc45)CC3)CC2)cc1 [Example 83]
4. O=C(N[C@H]1CC[C@H](CCN2CCC(c3coc4ccccc34)CC2)CC1)C1(O)CC1 [Example 22]
5. COCC(=O)N[C@H]1CC[C@H](CCN2CCC(c3coc4ccccc34)CC2)CC1 [Example 6]
6. O=C(N[C@H]1CC[C@H](CCN2CCC(c3coc4ccccc34)CC2)CC1)C(F)(F)F [Example 39]
7. O=C(N[C@H]1CC[C@H](CCN2CCC(c3coc4ccccc34)CC2)CC1)c1ccc(C2CC2)cc1 [Example 84]

[7.22, 7.30, 6.40, 7.32, 7.10, 7.43, 6.45]

---

Exercise: for every item that follows, state its recorded melting point.
One number for each entry, in °C.

CC(C)(C)c1ccc(C(=O)N[C@H]2CC[C@H](CCN3CCC(c4coc5ccccc45)CC3)CC2)cc1 [Example 60]: 180
C/C=C/CC(=O)N[C@H]1CC[C@H](CCN2CCC(c3coc4ccccc34)CC2)CC1 [Example 54]: 165
O=C(N[C@H]1CC[C@H](CCN2CCC(c3coc4ccccc34)CC2)CC1)C1CCC(C(F)(F)F)CC1 (stereo partly shown) [Example 79]: 190
O=C(CCC(F)(F)F)N[C@H]1CC[C@H](CCN2CCC(c3coc4ccccc34)CC2)CC1 [Example 44]: 192
O=C(N[C@H]1CC[C@H](CCN2CCC(c3coc4ccccc34)CC2)CC1)c1ccc(F)cc1 [Example 24]: 193
O=C(N[C@H]1CC[C@H](CCN2CCC(c3coc4ccccc34)CC2)CC1)c1ccc(-n2cccc2)cc1 [Example 68]: 212
O=C(CC(F)(F)F)N[C@H]1CC[C@H](CCN2CCC(c3coc4ccccc34)CC2)CC1 [Example 12]: 182
O=C(C[C@@H](O)C(F)(F)F)N[C@H]1CC[C@H](CCN2CCC(c3coc4ccccc34)CC2)CC1 [Example 35]: 166

I have 5 molecules here; please give me melting point for each one.
1. CC[C@H](O)CC(=O)N[C@H]1CC[C@H](CCN2CCC(c3coc4ccccc34)CC2)CC1 [Example 47]
2. O=C(CCO)N[C@H]1CC[C@H](CCN2CCC(c3coc4ccccc34)CC2)CC1 [Example 21]
3. O=C(N[C@H]1CC[C@H](CCN2CCC(c3coc4ccccc34)CC2)CC1)C1(O)CC1 [Example 22]
4. CS(=O)(=O)N[C@H]1CC[C@H](CCN2CCC(c3coc4ccccc34)CC2)CC1 [Example 36]
5. CC(C)(O)CC(=O)N[C@H]1CC[C@H](CCN2CCC(c3coc4ccccc34)CC2)CC1 [Example 34]

1. 140
2. 148
3. 200
4. 142
5. 150

I have 3 molecules here; please give me melting point for each one.
1. Cc1ccc(S(=O)(=O)N[C@H]2CC[C@H](CCN3CCC(c4coc5ccccc45)CC3)CC2)cc1 [Example 38]
2. CC(C)(C)CC(=O)N[C@H]1CC[C@H](CCN2CCC(c3coc4ccccc34)CC2)CC1 [Example 40]
3. O=C(N[C@H]1CC[C@H](CCN2CCC(c3coc4ccccc34)CC2)CC1)c1ccc(-n2cccn2)cc1 [Example 59]

149
174
205
